Test system: phosphorylated 4E-BP1 Thr37/46 (p4E-BP1 Thr37/46), mTORC1 activity, PC3 cells
ASSAY PROCEDURE: mTOR target engagement assay, immunofluorescent cell-based, p4E-BP1 Thr37/46 readout (mTORC1 activity)
EXPERIMENTAL PARAMETERS: PC3 cells; read-out: p4E-BP1 Thr37/46 IC50

COMPOUND: CS(=O)(=O)c1c(C2CC3COCC(C2)N3C(=O)c2nc[nH]n2)nc2c(-c3ccc(-c4ccccc4)nc3)cnn2c1N (single isomer, unassigned) [Compound 8.31]
IC50: 100 to 1000 nM
//
COMPOUND: CC(=O)c1c([C@@H]2C[C@H]3CC[C@@H](C2)N3C(=O)c2nnc[nH]2)nc2c(-c3cnc(NC4CC4)nc3)cnn2c1N
IC50: 1 to 100 nM
//
COMPOUND: CC(=O)c1c([C@@H]2C[C@H]3CC[C@@H](C2)N3C(=O)c2nnc[nH]2)nc2c(-c3cnc4c(c3)CCCC4O)cnn2c1N (stereo partly drawn)
IC50: 1 to 100 nM
//
COMPOUND: CS(=O)(=O)c1c([C@@H]2C[C@H]3CC[C@@H](C2)N3C(=N)NO)nc2c(-c3ccc(-c4ccccc4)nc3)cnn2c1N
IC50: 1000 to 10000 nM
//
COMPOUND: CC(=O)c1c([C@@H]2C[C@H]3CC[C@@H](C2)N3C(=O)c2nnc[nH]2)nc2c(-c3ccc(NC4CC4)nc3)cnn2c1N
IC50: 1 to 100 nM
//
COMPOUND: CS(=O)(=O)c1c(C2CC3COCC(C2)N3C(=O)c2nc[nH]n2)nc2c(-c3ccc(-c4ccccc4)nc3)cnn2c1N (single isomer, unassigned) [Compound 8.30]
IC50: 1 to 100 nM

// provenance: patent US9227971B2
